Source of measurements: patent US20240417458A1

Molecular target: T1, soluble rat RGMa (rat, UniProt D4A188 48-421)
T1 construct: Soluble antigen in BIAcore
T1 sequence: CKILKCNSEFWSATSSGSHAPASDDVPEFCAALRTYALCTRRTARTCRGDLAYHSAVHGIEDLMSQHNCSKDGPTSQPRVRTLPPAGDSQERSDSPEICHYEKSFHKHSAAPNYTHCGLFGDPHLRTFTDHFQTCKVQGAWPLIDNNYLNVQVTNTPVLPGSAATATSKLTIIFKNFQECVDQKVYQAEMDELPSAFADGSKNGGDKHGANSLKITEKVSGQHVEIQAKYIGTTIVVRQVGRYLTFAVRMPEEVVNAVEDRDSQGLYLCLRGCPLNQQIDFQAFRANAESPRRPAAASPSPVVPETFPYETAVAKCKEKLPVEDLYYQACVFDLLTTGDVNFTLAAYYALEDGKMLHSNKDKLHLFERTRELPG
Assay: SPR (BIAcore);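 further: binding kinetics and affinity of anti-HJV antibodies toward soluble rat RGMa, determined by SPR on a BIAcore instrument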
pKd: −log10 of the molar value.
Values of pKd greater than or equal to 10 map to y; values below map to n.

# example entries with known answers
>  <BINDER>
hHA-010 (antibody, human IgG1, kappa, L234A L235A, V domains shown, hIgG1 L234A, L235A, kappa) VH: EVQLVESGGGLVQPGGSLRLSCAASGFTFSNYGMNWVRQAPGKGLEWIGMIYYDSSEKHYADSVKGRFTISRDNSKNTLYLQMNSLRAEDTAVYYCAKGTTPDKWGQGTMVTVSS VL: DVVLTQSPLSLPVTLGQPASISCRSSQSLEESDGYTFLEWFQQRPGQSPRLLIYEVSHRFSGVPDRFSGSGSGTDFTLKISRVEAEDVGVYYCFQATHDPLTFGQGTKLEIKR

>  <ASSIGNED_CLASS>
y

$$$$
>  <BINDER>
hHA-009 (antibody, human IgG1, kappa, L234A L235A, V domains shown, hIgG1 L234A, L235A, kappa) VH: EVQLVESGGGLVQPGGSLRLSCAASGFTFSNYGMNWVRQAPGKGLEWIGMIYYDSSEKHYADSVKGRFTISRDNSKNTLYLQMNSLRAEDTAVYYCAKGTTPDYWGQGTMVTVSS VL: DVVLTQSPLSLPVTLGQPASISCRSSQSLADSDGDTFLHWFQQRPGQSPRLLIYAVSHRFSGVPDRFSGSGSGTDFTLKISRVEAEDVGVYYCFQATHDPVTFGQGTKLEIKR

>  <ASSIGNED_CLASS>
n

$$$$
>  <BINDER>
hHA-001 (antibody, human IgG1, kappa, L234A L235A, V domains shown, hIgG1 constant region with L234A, L235A, kappa) VH: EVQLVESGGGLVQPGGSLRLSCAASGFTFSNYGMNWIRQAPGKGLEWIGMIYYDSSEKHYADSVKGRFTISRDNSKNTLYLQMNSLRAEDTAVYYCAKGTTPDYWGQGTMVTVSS VL: DVVLTQSPLSLPVTLGQPASISCRSSQSLETSDGDTFLEWFQQRPGQSPRLLIYEVSTRFSGVPDRFSGSGSGTDFTLKISRVEAEDVGVYYCFQVTHDPMTFGQGTKLEIKR

>  <ASSIGNED_CLASS>
y

$$$$

Can hHA-006 (antibody, human IgG1, kappa, L234A L235A, V domains shown, hIgG1 L234A, L235A, kappa) VH: EVQLVESGGGLVQPGGSLRLSCAASGFTFSYYGMNWIRQAPGKGLEWIGMIYYDSSEKHYADSVKGRFTISRDNSKNTLYLQMNSLRAEDTAVYYCAKGTTPDYWGQGTMVTVSS VL: DVVLTQSPLSLPVTLGQPASISCRSSQSLEDSDGGTFLEWFQQRPGQSPRLLIYDVSSRFSGVPDRFSGSGSGTDFTLKISRVEAEDVGVYYCFQATHDPLTFGQGTKLEIKR be said to have pKd at or above 10?
y
